Recorded values, source patent US20240002497A1.

molecular target: T1, rhNav1.7α + β1-β2-β3 (rhesus monkey); experiment: binding FACS, CHO FlpIn cells
T1 construct: also called rhNav1.7-beta1-beta2-beta3; rhesus Nav1.7α
pEC50: −log10 of the molar value.
measurementKind: pEC50

Example entries begin here.
| binder | measValue |
| --- | --- |
| F010302353 (VHH) VHH: EVQLVESGGGVVQPGGSLRLSCAASHRQFIRDVFTGWYRRAPGKQRELVARIYEGGNTQYADSVKGRFTISRDNAKKTVYLQMNSLRPEDTALYYCLFSGTISTGREYRSGDYWGQGTLVTVSS | 8.10 |
| F010302334 (VHH) VHH: EVQLVESGGGVVQPGGSLRLSCAASSRQFIRDVFTGWYRRAPGKQRELVARIYNEGNTQYADSAKGRFTISRDNAKKTVYLQMNSLRPEDTALYYCLFSGTISTGREYRSGDYWGQGTLVTVSS | 7.96 |
| F010301891 (VHH, T57V vs F0103464B09 (Kabat)) VHH: EVQLVESGGGLVQPGGSLRLSCATTSRAFIRDVFTGWYRRVPGKERELVARIYNGGNVNYADFAKGRFSISRDNAKKMVTLRMSNLKPEDTGVYYCLFSGTINTGREYRSGDYWGQGTLVTVSS | 7.59 |
| F010302354 (VHH) VHH: EVQLVESGGGVVQPGGSLRLSCAASHRAFIRDVFTGWYRRAPGKQRELVARIYESGNTQYADSVKGRFTISRDNAKKTVYLQMNSLRPEDTALYYCLFSGTISTGREYRSGDYWGQGTLVTVSS | 8.10 |
| F010302363 (VHH) VHH: EVQLVESGGGVVQPGGSLRLSCAASHRAFIRDVFTGWYRQAPGKQRELVARIYEGGNTQYADSVKGRFTISRDNAKKTVYLQMNSLRPEDTALYYCLFSGTISTGREYRSGDYWGQGTLVTVSS | 8.03 |
| F010302337 (VHH) VHH: EVQLVESGGGVVQPGGSLRLSCAASHRQFIRDVFTGWYRRAPGKQRELVARIYEGGNTQYADSAKGRFTISRDNAKKTVYLQMNSLRPEDTALYYCLFSGTISTGREYRSGDYWGQGTLVTVSS | 8.17 |

[P] F010301881 (VHH, G54W vs F0103464B09 (Kabat)) VHH: EVQLVESGGGLVQPGGSLRLSCATTSRAFIRDVFTGWYRRVPGKERELVARIYNWGNTNYADFAKGRFSISRDNAKKMVTLRMSNLKPEDTGVYYCLFSGTINTGREYRSGDYWGQGTLVTVSS
[Q] F010302359 (VHH) VHH: EVQLVESGGGVVQPGGSLRLSCAASSRQFIRDVFTGWYRQAPGKQRELVARIYESGNTQYADSVKGRFTISRDNAKKTVYLQMNSLRPEDTALYYCLFSGTISTGREYRSGDYWGQGTLVTVSS
INPUT: Which of these two has the smaller recorded pEC50: P or Q ? In your reply, give the label of the chosen option.
OUTPUT: Q
(Q: 7.62, P: 8.24)
